# measuredOn: ACSS2 (Homo sapiens, UniProt Q9NR19)
# Construct: endogenous fatty acid synthesis activity in the human HCT-15 cancer cell line; endogenous in cells; host or cells: HCT-15
# Sequence (Q9NR19 whole entry): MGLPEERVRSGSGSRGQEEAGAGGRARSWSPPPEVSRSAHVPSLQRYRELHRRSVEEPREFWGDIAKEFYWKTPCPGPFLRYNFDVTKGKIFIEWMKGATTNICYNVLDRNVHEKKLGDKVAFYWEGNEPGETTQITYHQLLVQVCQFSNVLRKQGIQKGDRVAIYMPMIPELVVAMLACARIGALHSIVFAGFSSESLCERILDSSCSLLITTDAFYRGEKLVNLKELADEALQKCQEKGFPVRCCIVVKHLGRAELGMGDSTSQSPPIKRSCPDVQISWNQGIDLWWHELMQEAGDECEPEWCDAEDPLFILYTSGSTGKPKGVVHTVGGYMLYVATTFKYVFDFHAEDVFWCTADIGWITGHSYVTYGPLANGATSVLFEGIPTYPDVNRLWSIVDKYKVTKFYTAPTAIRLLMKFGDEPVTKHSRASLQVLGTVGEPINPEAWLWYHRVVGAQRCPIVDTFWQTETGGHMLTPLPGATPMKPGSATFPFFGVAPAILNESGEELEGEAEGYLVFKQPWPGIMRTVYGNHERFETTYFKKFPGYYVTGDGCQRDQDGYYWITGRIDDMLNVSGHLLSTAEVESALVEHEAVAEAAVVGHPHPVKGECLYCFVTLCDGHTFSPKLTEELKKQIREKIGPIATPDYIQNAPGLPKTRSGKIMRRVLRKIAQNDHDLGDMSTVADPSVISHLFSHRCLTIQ
# assayExplanation: Cellular assay of 14C acetate incorporation into fatty acids (IC50 ACSS2 cellular lipids)
# Assay type: cell-based
# condition: HCT-15 cells
resultType: IC50

compound: CCn1c(C(O)(c2ccccc2)c2ccccc2)nc2nc(OC)c(C(=O)Nc3ncn(CCOC)n3)cc21
valueMeasured: 100 to 10000 nM
//
compound: CCc1c(C(O)(c2ccccc2)c2ccccc2)nc2ccc(C(=O)Nc3ncn(CC)n3)cn12
valueMeasured: 1 to 10 nM
//
compound: CCc1c(C(O)(c2ccccc2)c2ccccc2)nn2ccc(C(=O)Nc3cnn(CC)c3)cc12
valueMeasured: 10 to 100 nM
//
compound: CCn1c(C(O)(c2ccccc2)c2ccccn2)nc2nc(OC)c(C(=O)Nc3ncn(CCO)n3)cc21 (racemic)
valueMeasured: 0.01 to 1 nM
//
compound: CCc1c(C(O)(c2ccccc2)c2ccccc2)nc2cc(Cl)c(C(=O)Nc3cnn(CC)c3)cn12
valueMeasured: 10 to 100 nM
//
compound: CCc1c(C(O)(c2ccccc2)c2ccccc2)nn2cc(OC)c(C(=O)Nc3ncn(CC)n3)cc12
valueMeasured: 1 to 10 nM
//
compound: CCc1nnc(NC(=O)c2cc3c(nc2OC)nc(C(O)(c2ccccc2)c2ccccc2)n3CC)o1
valueMeasured: 0.01 to 1 nM
//
compound: CCn1cc(NC(=O)c2cc3c(nc2C)nc(C(O)(c2ccccc2F)c2ccccc2F)n3CC)cn1
valueMeasured: 10 to 100 nM

-- ask So what's the measured IC50 for this one? CCc1c(C(O)(c2ccccc2)c2ccccc2)nc2cc(OC)c(C(=O)Nc3ncn(CC)n3)cn12
-- reply 1 to 10 nM

-- ask So what's the measured IC50 for this one? CCn1cnc(NC(=O)c2cnc3nc(C(O)(c4ccccc4)c4ccccc4)n(CC)c3c2)n1
-- reply 100 to 10000 nM

-- ask So what's the measured IC50 for this one? CCc1c(C(O)(c2ccccc2)c2ccccc2)nc2cc(Cl)c(C(=O)Nc3ncn(CC)n3)cn12
-- reply 1 to 10 nM

###

Entries and their IC50 values follow.
# measuredOn: ACSS2 (Homo sapiens)
# Construct: endogenous fatty acid synthesis activity in the human HCT-15 cancer cell line; endogenous in cells; host or cells: HCT-15
# assayExplanation: Cellular assay of 14C acetate incorporation into fatty acids (IC50 ACSS2 cellular lipids)
# Type: cell-based
# condition: HCT-15 cells

Study these solved cases before continuing.
compound: CCc1c(C(O)(c2ccccc2F)c2ccccc2F)nn2cc(Cl)c(C(=O)Nc3cnn(CC)c3)cc12
valueMeasured: 1 to 10 nM

compound: CCn1cnc(NC(=O)c2cc3c(nc2OC)nc(C(O)(c2ccc(OC(F)F)cc2)c2ccccc2F)n3CC)n1 (single isomer, unassigned)
valueMeasured: 0.01 to 1 nM

compound: CCn1cnc(NC(=O)c2cc3c(nc2OC)nc(C(O)(c2ccccc2)c2ccc(C)s2)n3CC)n1 (racemic)
valueMeasured: 1 to 10 nM

compound: CCn1cnc(NC(=O)c2cc3c(nc2OC)nc(C(O)(c2ccccc2)c2ccccc2)n3CC)c1
valueMeasured: 1 to 10 nM

compound: CCc1c(C(O)(c2ccccc2)c2ccccn2)nc2cc(OC)c(C(=O)Nc3ncn(CC)n3)cn12 (racemic)
valueMeasured: 10 to 100 nM

compound: CCc1c(C(O)(c2ccccc2)c2ccccc2)nc2cc(OC)c(C(=O)Nc3cnn(CC)c3)cn12
valueMeasured: 10 to 100 nM

compound: CCc1c(C(O)(c2ccccc2F)c2ccccc2F)nn2cc(Cl)c(C(=O)Nc3ncn(CC)n3)cc12
valueMeasured: 0.01 to 1 nM

-- ask So what's the measured IC50 for this one? CCc1c(C(O)(c2ccccc2)c2ccccc2)nn2cc(Cl)c(C(=O)Nc3ncn(CC)n3)cc12
-- reply 0.01 to 1 nM
